Reference source: the supplement of paper PMC10567573

Quick reference for protein stability index among some variants
B1: TRAF3IP2 (parent)
chain: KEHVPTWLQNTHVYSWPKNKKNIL

variants of: B1; assay: protein stability index of a GFP-peptide fusion (GPS, HEK-293T) (PSI 1-6); higher = more stable; details: c terminus: a fixed tail appended;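 further: lentivirally expressed fusions sorted by FACS into six bins by GFP to DsRed ratio, PSI derived from sequencing read proportions per bin multiplied by bin number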
measurement name: protein stability index

INSERT INTO assay_data (var, measurement_name, meas_value) VALUES
  ('L24H', 'protein stability index', 3.17),
  ('N10P', 'protein stability index', 2.64),
  ('T6N', 'protein stability index', 3.38),
  ('I23R', 'protein stability index', 3.74),
  ('W7L', 'protein stability index', 3.2),
  ('N22G', 'protein stability index', 2.7),
  ('N10C', 'protein stability index', 2.07),
  ('V4R', 'protein stability index', 2.69),
  ('S15M', 'protein stability index', 2.23),
  ('H12V', 'protein stability index', 2.05),
  ('L24F', 'protein stability index', 2.2);
